Reported Tm values for a set of molecules
# Organism: Homo sapiens
# test-protocol: Binding affinity to human recombinant DYRK1 expressed in Escherichia coli assessed as thermal shift by differential scanning fluorimetry
recorded-metric: Tm

C[C@@H]1C[C@H]2O[C@@H]2/C=C\C=C\C(=O)Cc2c(Cl)c(O)cc(O)c2C(=O)O1 [RADICICOL]    < 2 °C
COc1cc2c(c(OC)c1)C(=O)O[C@@H](C)CCCC(=O)[C@@H](C)CC/C=C/2    < 2 °C
C[C@H]1CCCC(=O)CCC/C=C/c2cc(O)cc(O)c2C(=O)O1    < 2 °C

---

# target-or-system: Serine/threonine-protein kinase pim-1 (Homo sapiens) (UniProt P11309)
# Sequence (P11309 whole entry, looked up): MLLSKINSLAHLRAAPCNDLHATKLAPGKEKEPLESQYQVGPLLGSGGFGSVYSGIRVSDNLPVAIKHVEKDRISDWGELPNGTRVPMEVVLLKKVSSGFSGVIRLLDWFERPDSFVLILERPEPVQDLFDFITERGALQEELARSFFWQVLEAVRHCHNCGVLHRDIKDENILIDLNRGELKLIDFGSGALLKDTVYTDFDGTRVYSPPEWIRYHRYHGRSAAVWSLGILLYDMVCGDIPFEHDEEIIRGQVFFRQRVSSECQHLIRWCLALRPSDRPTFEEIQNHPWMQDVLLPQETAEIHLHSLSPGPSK
# test-protocol: Binding affinity to human recombinant PIM1 expressed in Escherichia coli assessed as thermal shift by differential scanning fluorimetry
recorded-metric: Tm

COC1=C2C[C@@H](C)C[C@H](OC)[C@H](O)[C@@H](C)/C=C(\C)[C@H](OC(N)=O)[C@@H](OC)/C=C\C=C(/C)C(=O)NC(=CC1=O)C2=O    < 2 °C
C[C@H]1CCCC(=O)CCC/C=C/c2cc(O)cc(O)c2C(=O)O1    3 °C
COc1cc(O)c2c(c1)/C=C/CC[C@H](C)C(=O)CCC[C@H](C)OC2=O    < 2 °C
COc1cc2c(c(OC)c1)C(=O)O[C@@H](C)CCCC(=O)[C@@H](C)CC/C=C/2    < 2 °C
C[C@H]1CCCC(=O)[C@@H](C)CC/C=C/c2cc(O)cc(O)c2C(=O)O1    2.2 °C
C[C@@H]1C[C@H]2O[C@@H]2/C=C\C=C\C(=O)Cc2c(Cl)c(O)cc(O)c2C(=O)O1    < 2 °C
COc1cc2c(c(OC)c1)C(=O)O[C@@H](C)CCC[C@@H](O)[C@@H](C)CC/C=C/2    < 2 °C

---

# target-or-system: Serine/threonine-protein kinase PLK4 (Homo sapiens)
# Sequence (whole entry): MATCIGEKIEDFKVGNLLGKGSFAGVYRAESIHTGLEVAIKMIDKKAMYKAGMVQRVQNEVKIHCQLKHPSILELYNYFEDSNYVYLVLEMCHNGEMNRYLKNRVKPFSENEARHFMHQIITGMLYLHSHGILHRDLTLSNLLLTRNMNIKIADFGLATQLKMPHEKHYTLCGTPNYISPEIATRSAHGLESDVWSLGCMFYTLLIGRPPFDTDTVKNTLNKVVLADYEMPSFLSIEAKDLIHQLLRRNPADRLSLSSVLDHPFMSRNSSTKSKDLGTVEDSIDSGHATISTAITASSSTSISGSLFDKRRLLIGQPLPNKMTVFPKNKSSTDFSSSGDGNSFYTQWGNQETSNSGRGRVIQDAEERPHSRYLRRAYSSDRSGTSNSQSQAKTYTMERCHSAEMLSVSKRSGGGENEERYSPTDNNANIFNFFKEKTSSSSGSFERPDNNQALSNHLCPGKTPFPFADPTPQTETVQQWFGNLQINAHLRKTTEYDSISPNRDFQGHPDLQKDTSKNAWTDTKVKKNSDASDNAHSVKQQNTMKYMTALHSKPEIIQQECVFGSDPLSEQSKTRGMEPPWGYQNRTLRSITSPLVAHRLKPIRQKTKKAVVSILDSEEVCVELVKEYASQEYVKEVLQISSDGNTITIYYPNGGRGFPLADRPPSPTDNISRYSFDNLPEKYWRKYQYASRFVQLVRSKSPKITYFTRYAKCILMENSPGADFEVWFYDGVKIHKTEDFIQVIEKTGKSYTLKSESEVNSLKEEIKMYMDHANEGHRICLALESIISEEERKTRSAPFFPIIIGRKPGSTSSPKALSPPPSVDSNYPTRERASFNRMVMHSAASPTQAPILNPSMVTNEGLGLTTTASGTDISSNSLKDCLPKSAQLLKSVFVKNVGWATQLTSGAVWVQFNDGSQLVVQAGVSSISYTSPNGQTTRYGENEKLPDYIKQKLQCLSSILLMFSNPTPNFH
# test-protocol: Binding affinity to human recombinant PLK4 expressed in Escherichia coli assessed as thermal shift by differential scanning fluorimetry
recorded-metric: Tm

COC1=C2C[C@@H](C)C[C@H](OC)[C@H](O)[C@@H](C)/C=C(\C)[C@H](OC(N)=O)[C@@H](OC)/C=C\C=C(/C)C(=O)NC(=CC1=O)C2=O    < 2 °C
COc1cc2c(c(OC)c1)C(=O)O[C@@H](C)CCC[C@@H](O)[C@@H](C)CC/C=C/2    < 2 °C
C[C@H]1CCCC(=O)CCC/C=C/c2cc(O)cc(O)c2C(=O)O1    < 2 °C
C[C@H]1CCCC(=O)[C@@H](C)CC/C=C/c2cc(O)cc(O)c2C(=O)O1    < 2 °C
COc1cc(O)c2c(c1)/C=C/CC[C@H](C)C(=O)CCC[C@H](C)OC2=O    < 2 °C
COc1cc2c(c(OC)c1)C(=O)O[C@@H](C)CCCC(=O)[C@@H](C)CC/C=C/2    < 2 °C
C[C@@H]1C[C@H]2O[C@@H]2/C=C\C=C\C(=O)Cc2c(Cl)c(O)cc(O)c2C(=O)O1    < 2 °C

---

# target-or-system: STE20-like serine/threonine-protein kinase (Homo sapiens)
# test-protocol: Binding affinity to human recombinant SLK expressed in Escherichia coli assessed as thermal shift by differential scanning fluorimetry
recorded-metric: Tm (°C)

COc1cc(O)c2c(c1)/C=C/CC[C@H](C)C(=O)CCC[C@H](C)OC2=O    2.5
C[C@H]1CCCC(=O)[C@@H](C)CC/C=C/c2cc(O)cc(O)c2C(=O)O1    3.5
C[C@H]1CCCC(=O)CCC/C=C/c2cc(O)cc(O)c2C(=O)O1    4.4
